experiment: GSK_TCMDC: Inhibition Frequency Index (IFI). The number of non-kinase HTS assays where a compound showed > 50 % inhibition, expressed as a percentage of the number of such assays in which the compound was tested; format: functional
In all, about 13,000 compounds were measured (“IFI”: median about 4, highest 2% from about 17 on). For the sample, the highest values were picked, then their nearest neighbours and some compounds at random.
Classification field: enter fulfilled for IFI values not below 9%, not fulfilled for values below it.

molecule	discreteLabel
COc1cc(C(=O)N2CCOC(CCN3CCC[C@H]3C(=O)Nc3ccccc3)(c3ccc(Cl)c(Cl)c3)C2)cc(OC)c1OC (some centres not stated)	not fulfilled
COc1ccc(OCCCON2C(=N)N=C(N)NC2(C)C)cc1	not fulfilled
O=C(/C=C/c1ccc(Cl)c(Cl)c1)NCC[C@@H]1C[C@H]1CCN1CCC(c2c[nH]c3ccccc23)CC1	fulfilled
CSc1ccc(CN2CCC(NC(=O)c3ccc(-c4cccc(C(F)(F)F)c4)s3)CC2)cc1	fulfilled
O=C(Nc1ccc([N+](=O)[O-])cc1Cl)c1cc2ccccc2cc1O	fulfilled
CC1(CCN2CCC(c3c[nH]c4cnccc34)CC2)CCCc2c(Br)cccc2C1=O (configuration not stated)	not fulfilled
CC(CCON1C(N)=NC(N)=NC1(C)C)c1ccc(Cl)c(Cl)c1 (configuration not stated)	not fulfilled
CCN(CC)CCCC(C)N/C(=N\c1ccccc1Br)Nc1ccc(C#N)cc1O (configuration not stated)	not fulfilled
Cc1ccc(Nc2nccc(NCC(O)c3cccc(C(F)(F)F)c3)n2)cc1 (configuration not stated)	fulfilled
O=C(Nc1ccc([N+](=O)[O-])cc1Cl)c1cc(Br)cc(Cc2ccccc2)c1O	fulfilled
CN(C)c1ccc(CN2CCC(NC(=O)c3ccc(-c4cccc(F)c4)s3)CC2)cc1	fulfilled
CO/C(=C\C=C\c1cc2cc(Cl)c(Cl)cc2[nH]1)C(=O)NCCCN1CCN(c2cccc(Cl)c2)CC1	not fulfilled
O=C(Nc1ccc(Cl)cc1C(=O)Nc1cccc(F)c1)c1ccc([N+](=O)[O-])cc1	not fulfilled
CN(C)Cc1cccc(-c2ccc(Nc3nccc(NCC(O)c4ccccc4)n3)cc2)c1 (configuration not stated)	fulfilled
COc1cc(CN/C(=N/c2ccc(-c3ccccc3)cc2)Nc2ccc(C#N)cc2O)cc(OC)c1	not fulfilled
Cc1ccc2[nH]c(-c3cc(-c4ccc(CO)cc4)cnc3N)nc2c1	not fulfilled
CO/C(=C\C=C\c1cc2cc(Cl)c(Cl)cc2[nH]1)C(=O)NCCCNC12CC3CC(CC(C3)C1)C2	fulfilled
O=C(/C=C/c1ccc(Cl)c(Cl)c1)NC1CCC(CN2CCC(c3nc4cccnc4[nH]3)CC2)CC1 (configuration not stated)	not fulfilled
O=C(NC1CCC(CCN2CCc3ccc(-c4cnccn4)cc3CC2)CC1)c1cccc(-n2cccn2)c1 (configuration not stated)	not fulfilled
Cc1ccc(Nc2nccc(NCC(O)c3cccc(F)c3)n2)cc1 (configuration not stated)	fulfilled
COc1ccc(Nc2nccc(NCC(O)c3cccc(C(F)(F)F)c3)n2)cc1 (configuration not stated)	fulfilled
